Target: human AspH (His6-AspH315–758) (Homo sapiens)
Construct: N-Terminally His6-tagged human AspH315–758 (His6-AspH315–758) was produced in Escherichia coli BL21 (DE3) cells; made in house; host or cells: Escherichia coli BL21 (DE3), pET-28a(+) vector
Sequence (Q12797 315-758): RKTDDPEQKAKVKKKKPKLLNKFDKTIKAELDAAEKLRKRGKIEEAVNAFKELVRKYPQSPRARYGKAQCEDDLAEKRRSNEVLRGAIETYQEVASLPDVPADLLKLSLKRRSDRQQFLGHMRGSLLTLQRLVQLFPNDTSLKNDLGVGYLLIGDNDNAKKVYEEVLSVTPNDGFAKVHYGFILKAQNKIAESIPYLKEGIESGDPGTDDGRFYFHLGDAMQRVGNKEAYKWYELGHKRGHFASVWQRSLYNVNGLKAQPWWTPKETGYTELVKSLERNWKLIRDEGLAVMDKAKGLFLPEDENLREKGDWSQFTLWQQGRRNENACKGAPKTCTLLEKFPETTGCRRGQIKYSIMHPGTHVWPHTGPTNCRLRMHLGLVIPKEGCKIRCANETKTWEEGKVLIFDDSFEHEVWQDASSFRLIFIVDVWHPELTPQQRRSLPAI
Assay: SPE-MS AspH inhibition assay (hFX-CP101-119 substrate hydroxylation)
Format: biochemical
Conditions: AspH-inhibitor screening, Plate 1-duplicate
Where a name gives a salt, the structure may show the parent alone.
ASSAY READOUT: Plate 1-duplicate (% inhibition) (%)

Observe how each entry below is paired with its result.
>  <COMPOUND>
C#Cc1cccc(Nc2ncnc3cc(OCCOC)c(OCCOC)cc23)c1 [Erlotinib hydrochloride]

>  <Plate 1-duplicate (% inhibition) (%)>
-12.97

$$$$
>  <COMPOUND>
O=P1(NCCCl)OCCCN1CCCl (stereo not shown) [Ifosfamide]

>  <Plate 1-duplicate (% inhibition) (%)>
4.50

$$$$

(I) COc1cc2ncnc(Nc3ccc(F)c(Cl)c3)c2cc1NC(=O)/C=C/CN1CCCCC1.O [Dacomitinib (monohydrate) (PF-00299804)]
(II) CNC(=O)c1cc(Oc2ccc(NC(=O)Nc3ccc(Cl)c(C(F)(F)F)c3)cc2)ccn1 [Sorafenib]
(III) COc1cc2nccc(Oc3ccc(NC(=O)C4(C(=O)Nc5ccc(F)cc5)CC4)cc3)c2cc1OC [XL184_Cabozantinib]
(IV) C/C(=C\c1csc(C)n1)[C@@H]1C[C@@H]2O[C@]2(C)CCC[C@H](C)[C@H](O)[C@@H](C)C(=O)C(C)(C)[C@@H](O)CC(=O)N1 [Ixabepilone]
(V) CC1(COc2ccc3c(c2)ncn3-c2ccc3cccc(N4CCC(N)CC4)c3n2)COC1 [Crenolanib]
Endpoint returns the given compounds ordered by ascending Plate 1-duplicate (% inhibition). Thanks in advance for listing the labels in the requested order.
I, III, V, IV, II
